system: kochia (Kochia scoparia); assay: Test B pre-/postemergence plant response; type: in vivo; conditions: Postemergence, 125 g ai/ha; visual rating after 13 to 15 days, scale 0 (no effect) to 100 (complete control)
Label satisfied when Plant response rating, Kochia is at or above 80; anything below gets not satisfied.

>>> qualitative_label("Cc1ccccc1-c1ncc(C(=O)C2=C(O)CCCC2=O)c(=O)n1-c1ccccc1 [Compound 82]")
"not satisfied"
>>> qualitative_label("CCCCc1ncc(C(=O)C2=C(O)CCCC2=O)c(=O)n1-c1ccccc1 [Compound 42]")
"satisfied"
>>> qualitative_label("CCCn1c(-c2cccs2)ncc(C(=O)C2=C(O)CCCC2=O)c1=O [Compound 77]")
"satisfied"
>>> qualitative_label("Cc1c(Cl)cccc1-n1c(-c2ccccc2)ncc(C(=O)C2=C(O)CCCC2=O)c1=O [Compound 40]")
"not satisfied"
>>> qualitative_label("Cc1cc(-n2c(-c3ccccc3)ncc(C(=O)C3=C(O)CCCC3=O)c2=O)ccc1F [Compound 53]")
"not satisfied"
>>> qualitative_label("Cc1ccc(-c2ncc(C(=O)C3=C(O)CCCC3=O)c(=O)n2-c2ccccc2)cc1 [Compound 80]")
"not satisfied"
>>> qualitative_label("CCCCc1ncc(C(=O)C2=C(O)CCCC2=O)c(=O)n1-c1ccc(C)cc1 [Compound 67]")
"satisfied"
>>> qualitative_label("CCCc1ncc(C(=O)C2=C(O)CCCC2=O)c(=O)n1CC1CCCO1 (stereo not shown) [Compound 74]")
"satisfied"
>>> qualitative_label("Cc1ccc(-n2c(-c3ccccc3)ncc(C(=O)C3=C(O)CCCC3=O)c2=O)cc1 [Compound 8]")
"satisfied"
>>> qualitative_label("Cc1ccccc1-n1c(-c2ccccc2)ncc(C(=O)C2=C(O)CCCC2=O)c1=O [Compound 12]")
"not satisfied"

----------
The compounds listed here are annotated with their Plant response rating, Windgrass.
test system: windgrass (Apera spica-venti); experiment: Test B postemergence plant response; format: in vivo; conditions: Postemergence, 62 g ai/ha; scale 0 (no effect) to 100 (complete control); 13 to 15 days
Measure: Plant response rating, Windgrass

>>> result("Cc1cc(-n2c(-c3ccccc3)ncc(C(=O)C3=C(O)CCCC3=O)c2=O)ccc1F")
80
>>> result("Cc1c(Cl)cccc1-n1c(-c2ccccc2)ncc(C(=O)C2=C(O)CCCC2=O)c1=O")
70
>>> result("O=C1CCCC(O)=C1C(=O)c1cnc(-c2ccsc2)n(-c2ccccc2)c1=O")
40
>>> result("O=C1CCCC(O)=C1C(=O)c1cnc(-c2ccccc2)n(-c2cccc(Br)c2)c1=O")
80
>>> result("Cc1ccccc1-n1c(-c2cccc(Cl)c2)ncc(C(=O)C2=C(O)CCCC2=O)c1=O")
70
>>> result("Cc1ccccc1-n1c(-c2ccccc2)ncc(C(=O)C2=C(O)CCCC2=O)c1=O")
40
>>> result("O=C1CCCC(O)=C1C(=O)c1cnc(-c2ccccc2)n(-c2ccccc2F)c1=O")
30
>>> result("Cc1cc(C)cc(-n2c(-c3ccccc3)ncc(C(=O)C3=C(O)CCCC3=O)c2=O)c1")
25

----------
test system: green foxtail (Setaria viridis); test: Test B pre-/postemergence plant response; format: in vivo; details: Postemergence, 125 g ai/ha; visual rating after 13 to 15 days, scale 0 (no effect) to 100 (complete control)
Reported Plant response rating, Foxtail, Green values follow for various compounds
Measure: Plant response rating, Foxtail, Green

>>> quantitative_result("O=C1CCCC(O)=C1C(=O)c1cnc(-c2ccccc2)n(-c2cccc(Br)c2)c1=O")
95
>>> quantitative_result("Cc1ccc(F)cc1-n1c(-c2ccccc2)ncc(C(=O)C2=C(O)CCCC2=O)c1=O")
90
>>> quantitative_result("Cc1ccccc1-n1c(-c2ccccc2)ncc(C(=O)C2=C(O)CCCC2=O)c1=O")
70
>>> quantitative_result("CCCCc1ncc(C(=O)C2=C(O)CCCC2=O)c(=O)n1-c1ccccc1")
60
>>> quantitative_result("O=C1CCCC(O)=C1C(=O)c1cnc(-c2ccccc2Br)n(-c2ccccc2)c1=O")
70
>>> quantitative_result("O=C1CCCC(O)=C1C(=O)c1cnc(-c2ccccc2)n(CC2CCCO2)c1=O (stereo not drawn)")
70

----------
system: barnyardgrass (Echinochloa crus-galli); assay: Test B flooded paddy test; assay type: in vivo; conditions: 250 g ai/ha; flooded paddy test; visual rating on 0 to 100 scale (0 no effect, 100 complete control) after 13 to 15 days
Category scheme (Plant response rating, Flood, Barnyardgrass): lowest = under 10, middle = from 10 up to 50, highest = 50 and over

>>> qualitative_label("O=C(C1=C(O)C2CCC(C2)C1=O)c1cnc(-c2cccc(Br)c2)n(C2CCCCC2)c1=O (stereo not shown)")
"lowest"
>>> qualitative_label("Cc1ccc(F)cc1-n1c(-c2ccccc2)ncc(C(=O)C2=C(O)CCCC2=O)c1=O")
"middle"
>>> qualitative_label("C=CCn1c(-c2ccccc2)ncc(C(=O)C2=C(O)CCCC2=O)c1=O")
"lowest"
>>> qualitative_label("CCCCc1ncc(C(=O)C2=C(O)CCCC2=O)c(=O)n1-c1ccccc1")
"lowest"
>>> qualitative_label("Cc1cc(-n2c(-c3cccc(F)c3)ncc(C(=O)C3=C(O)CCCC3=O)c2=O)ccc1F")
"middle"
>>> qualitative_label("CCCCCCc1ncc(C(=O)C2=C(O)CCCC2=O)c(=O)n1-c1ccccc1")
"lowest"
>>> qualitative_label("Cc1ccc(-c2ncc(C(=O)C3=C(O)CCCC3=O)c(=O)n2-c2ccccc2)cc1")
"middle"
>>> qualitative_label("CCCc1ncc(C(=O)C2=C(O)CCCC2=O)c(=O)n1-c1ccccc1C")
"lowest"
>>> qualitative_label("O=C1CCCC(O)=C1C(=O)c1cnc(-c2cccs2)n(C2CCCCC2)c1=O")
"highest"
>>> qualitative_label("CCCn1c(-c2cccs2)ncc(C(=O)c2cnn(CC)c2O)c1=O")
"middle"
>>> qualitative_label("COCCn1c(-c2cccc(F)c2)ncc(C(=O)C2=C(O)CCCC2=O)c1=O")
"highest"
>>> qualitative_label("COCCn1c(-c2cccc(F)c2)ncc(C(=O)C2=C(O)C3CCC(C3)C2=O)c1=O (stereo not shown)")
"highest"
>>> qualitative_label("CCCn1c(-c2cccs2)ncc(C(=O)C2=C(O)CCCC2=O)c1=O")
"highest"
>>> qualitative_label("COCC(C)n1c(-c2ccccc2)ncc(C(=O)C2=C(O)CCCC2=O)c1=O (stereo not shown)")
"highest"
>>> qualitative_label("CCc1cccc(-c2ncc(C(=O)C3=C(O)CCCC3=O)c(=O)n2C2CCCCC2)c1")
"middle"
>>> qualitative_label("COCCn1c(-c2cccc(C)c2)ncc(C(=O)C2=C(O)CCCC2=O)c1=O")
"highest"
>>> qualitative_label("CCCCc1ncc(C(=O)C2=C(O)CCCC2=O)c(=O)n1-c1ccc(C)cc1")
"lowest"

----------
tested on: canarygrass (Phalaris minor); experiment: Test B postemergence plant response; assay type: in vivo; conditions: Postemergence, 250 g ai/ha; scale 0 to 100 (0 no effect, 100 complete control); 13 to 15 days
Measure: Plant response rating, Canarygrass

>>> quantitative_result("CCCCn1c(-c2cccc(Cl)c2)ncc(C(=O)C2=C(O)CCCC2=O)c1=O [Compound 146]")
10
>>> quantitative_result("COc1ccc(-n2c(-c3ccccc3)ncc(C(=O)C3=C(O)CCCC3=O)c2=O)cc1OC [Compound 218]")
5
>>> quantitative_result("COCCn1c(-c2ccsc2)ncc(C(=O)C2=C(O)C3CCC(C3)C2=O)c1=O (stereo not shown) [Compound 228]")
10
>>> quantitative_result("CCCn1c(-c2cc(F)cc(F)c2)ncc(C(=O)C2=C(O)CCCC2=O)c1=O [Compound 152]")
85
>>> quantitative_result("Cc1cc(-n2c(-c3cccc(F)c3)ncc(C(=O)C3=C(O)CCCC3=O)c2=O)ccc1F [Compound 191]")
85
>>> quantitative_result("CCc1ccc(-n2c(-c3ccccc3)ncc(C(=O)C3=C(O)CCCC3=O)c2=O)cc1 [Compound 219]")
55
>>> quantitative_result("CCCn1c(-c2ccsc2)ncc(C(=O)C2=C(O)C3CCC(C3)C2=O)c1=O (stereo not shown) [Compound 227]")
10

----------
tested on: corn (Zea mays); experiment: Test A pre-/postemergence plant response; assay type: in vivo; conditions: Preemergence, 500 g ai/ha; 0 to 100 scale, 0 = no effect, 100 = complete control
Measure: Plant response rating, Corn

>>> quantitative_result("CCc1ccc(-n2c(-c3cccc(Br)c3)ncc(C(=O)C3=C(O)CCCC3=O)c2=O)cc1 [Compound 177]")
20
>>> quantitative_result("C=CCCn1c(-c2ccccc2)ncc(C(=O)C2=C(O)CCCC2=O)c1=O [Compound 214]")
0
>>> quantitative_result("Cc1ccccc1-n1c(-c2cc(F)cc(F)c2)ncc(C(=O)C2=C(O)CCCC2=O)c1=O [Compound 159]")
40
>>> quantitative_result("O=C1CCCC(O)=C1C(=O)c1cnc(-c2cc(F)c(F)c(F)c2)n(C2CCCCC2)c1=O [Compound 205]")
0
>>> quantitative_result("Cc1cc(F)ccc1-n1c(-c2cccc(Br)c2)ncc(C(=O)C2=C(O)CCCC2=O)c1=O [Compound 166]")
0
>>> quantitative_result("Cc1ccc(Cl)cc1-n1c(-c2cccc(F)c2)ncc(C(=O)C2=C(O)CCCC2=O)c1=O [Compound 184]")
20
>>> quantitative_result("O=C(C1=C(O)C2CCC(C2)C1=O)c1cnc(-c2cc(F)c(F)c(F)c2)n(C2CCCCC2)c1=O (centres unmarked) [Compound 251]")
0
>>> quantitative_result("COCCn1c(-c2ccsc2)ncc(C(=O)C2=C(O)C3CCC(C3)C2=O)c1=O (centres unmarked) [Compound 228]")
50
